All values here come from the supplement of paper PMC11061612.

Tested on: GAK (Melanoma);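 note: after 72 h of two-drug dosing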
procedure.details: Bliss excess, mean over the matrix (fraction); higher = more synergy
parameter.measured: Bliss excess

- molecule: "NC1(C(=O)N[C@@H](CCO)c2ccc(Cl)cc2)CCN(c2ncnc3[nH]ccc23)CC1 [Capivasertib] + CC(C)n1c(=O)n(C)c2cnc3cc(F)c(-c4ccc(OCCCN5CCCCC5)nc4)cc3c21 [AZD1390] (first compound max 10 µM, 7x7, partner max 0.3 µM)"
  parameter.measured: "Bliss excess"
  numeric.readout: -0.0397
- molecule: "CN(CCO)CC[C@H](CSc1ccccc1)Nc1ccc(S(=O)(=O)NC(=O)c2ccc(N3CCC([C@@H](O)c4ccccc4-c4ccc(Cl)cc4)CC3)cc2)cc1S(=O)(=O)C(F)(F)F [AZD4320] + C1CN(CCC1(C(=O)N[C@@H](CCO)C2=CC=C(C=C2)Cl)N)C3=NC=NC4=C3C=CN4 [Capivasertib] (first compound max 1 µM, 7x7, partner max 3 µM)"
  parameter.measured: "Bliss excess"
  numeric.readout: -0.064
